system: large crabgrass (Digitaria sanguinalis); assay: Test B pre-/postemergence plant response; format: in vivo; conditions: Preemergence, 31 g ai/ha; scale 0 to 100 (0 no effect, 100 complete control)

molecule | Plant response rating, Crabgrass, Large
Cc1ccccc1-n1c(-c2ccccc2)ncc(C(=O)C2=C(O)CCCC2=O)c1=O [Compound 12] | 0
CCCCc1ncc(C(=O)C2=C(O)CCCC2=O)c(=O)n1-c1cccc(C)c1 [Compound 63] | 50
COCCCn1c(-c2cc(F)cc(F)c2)ncc(C(=O)C2=C(O)CCCC2=O)c1=O [Compound 120] | 98
COc1ccc(-n2c(-c3ccccc3)ncc(C(=O)C3=C(O)CCCC3=O)c2=O)cc1OC [Compound 218] | 0
Cn1c(-c2ccccc2)ncc(C(=O)C2=C(O)CCCC2=O)c1=O [Compound 55] | 10
CCCc1ncc(C(=O)C2=C(O)CCCC2=O)c(=O)n1-c1ccccc1C [Compound 73] | 85
CCCCc1ncc(C(=O)C2=C(O)CCCC2=O)c(=O)n1-c1ccc(C)cc1 [Compound 67] | 40

###

tested on: black mustard (Brassica nigra); assay: Test D pre-/postemergence plant response; type: in vivo; settings: Postemergence, 125 g ai/ha; scale 0 to 100 (0 no effect, 100 complete control)
Entries and their Plant response rating, Black Mustard
readoutKind: Plant response rating, Black Mustard

molecule | readoutKind | measuredResult
O=C1CCCC(O)=C1C(=O)c1cnc(-c2ccccc2)n(CC2CCCO2)c1=O (centres unmarked) [Compound 59] | Plant response rating, Black Mustard | 98
COCCn1c(-c2cccc(C)c2)ncc(C(=O)C2=C(O)C3CCC(C3)C2=O)c1=O (centres unmarked) [Compound 233] | Plant response rating, Black Mustard | 100
COCCn1c(-c2cc(F)cc(F)c2)ncc(C(=O)C2=C(O)C3CCC(C3)C2=O)c1=O (centres unmarked) [Compound 243] | Plant response rating, Black Mustard | 98
COCCCn1c(-c2cccc(F)c2)ncc(C(=O)C2=C(O)C3CCC(C3)C2=O)c1=O (centres unmarked) [Compound 238] | Plant response rating, Black Mustard | 98
COCCn1c(-c2cccc(F)c2)ncc(C(=O)C2=C(O)C3CCC(C3)C2=O)c1=O (centres unmarked) [Compound 235] | Plant response rating, Black Mustard | 98

###

test system: johnsongrass (Sorghum halepense); experiment: Test B pre-/postemergence plant response; assay type: in vivo; details: Preemergence, 31 g ai/ha; scale 0 to 100 (0 no effect, 100 complete control)

compound | Plant response rating, Johnsongrass
O=C1CCCC(O)=C1C(=O)c1cnc(-c2ccccc2)n(-c2cccc(Br)c2)c1=O [Compound 38] | 10
CCCn1c(-c2cccs2)ncc(C(=O)C2=C(O)CCCC2=O)c1=O [Compound 77] | 0
CCc1ccccc1-n1c(-c2ccccc2)ncc(C(=O)C2=C(O)CCCC2=O)c1=O [Compound 255] | 0
O=C1CCCC(O)=C1C(=O)c1cnc(-c2cccc(Cl)c2)n(-c2ccc(Cl)cc2)c1=O [Compound 64] | 0
Cc1ccc(F)cc1-n1c(-c2ccccc2)ncc(C(=O)C2=C(O)CCCC2=O)c1=O [Compound 44] | 10
CCCCn1c(-c2cc(F)cc(F)c2)ncc(C(=O)C2=C(O)C3CCC(C3)C2=O)c1=O (stereo not shown) [Compound 245] | 65
COCCCn1c(-c2cc(F)cc(F)c2)ncc(C(=O)C2=C(O)CCCC2=O)c1=O [Compound 120] | 35

###

system: canarygrass (Phalaris minor); experiment: Test B postemergence plant response; type: in vivo; conditions: Postemergence, 250 g ai/ha; scale 0 to 100 (0 no effect, 100 complete control)
readoutKind: Plant response rating, Canarygrass

compound | measuredResult
Cc1ccccc1-c1ncc(C(=O)C2=C(O)CCCC2=O)c(=O)n1-c1ccccc1 | 35
O=C1CCCC(OC(=O)C2CC2)=C1C(=O)c1cnc(-c2ccccc2)n(-c2ccccc2)c1=O | 90
COCCn1c(-c2ccccc2)ncc(C(=O)C2=C(O)CCCC2=O)c1=O | 60
COCCn1c(-c2cc(F)cc(F)c2)ncc(C(=O)C2=C(O)CCCC2=O)c1=O | 30
CCCc1ncc(C(=O)C2=C(O)CCCC2=O)c(=O)n1-c1ccccc1C | 40
CCCn1c(-c2ccc(F)cc2)ncc(C(=O)C2=C(O)CCCC2=O)c1=O | 50
O=C1CCCC(O)=C1C(=O)c1cnc(-c2ccsc2)n(-c2ccccc2)c1=O | 40
CCCc1ncc(C(=O)C2=C(O)CCCC2=O)c(=O)n1CC1CCCO1 (centres unmarked) | 0

###

test system: large crabgrass (Digitaria sanguinalis); test: Test B pre-/postemergence plant response; format: in vivo; settings: Preemergence, 125 g ai/ha; scale 0 to 100, 0 no effect, 100 complete control

molecule | systemTested | Plant response rating, Crabgrass, Large
Cn1c(-c2ccccc2)ncc(C(=O)C2=C(O)CCCC2=O)c1=O | large crabgrass (Digitaria sanguinalis) | 95
COc1ccc(-n2c(-c3ccccc3)ncc(C(=O)C3=C(O)CCCC3=O)c2=O)cc1OC | large crabgrass (Digitaria sanguinalis) | 65
CCCCn1c(-c2cc(F)cc(F)c2)ncc(C(=O)C2=C(O)C3CCC(C3)C2=O)c1=O (stereo not shown) | large crabgrass (Digitaria sanguinalis) | 100
COCCn1c(-c2cc(F)cc(F)c2)ncc(C(=O)C2=C(O)CCCC2=O)c1=O | large crabgrass (Digitaria sanguinalis) | 100

###

Entries and their Plant response rating, Barnyardgrass
tested on: barnyardgrass (Echinochloa crus-galli); experiment: Test A pre-/postemergence plant response; format: in vivo; conditions: Preemergence, 125 g ai/ha; 0 to 100 scale, 0 = no effect, 100 = complete control

compound | systemTested | Plant response rating, Barnyardgrass
Cc1ccc(-n2c(-c3ccccc3)ncc(C(=O)C3=C(O)CCCC3=O)c2=O)c(C)c1 [Compound 28] | barnyardgrass (Echinochloa crus-galli) | 10
Cc1cc(-n2c(-c3ccccc3)ncc(C(=O)C3=C(O)CCCC3=O)c2=O)ccc1F [Compound 53] | barnyardgrass (Echinochloa crus-galli) | 40
CCCCn1c(-c2cccc(Cl)c2)ncc(C(=O)C2=C(O)CCCC2=O)c1=O [Compound 146] | barnyardgrass (Echinochloa crus-galli) | 60
O=C1CCCC(O)=C1C(=O)c1cnc(-c2cccc(Cl)c2)n(-c2ccc(Cl)cc2)c1=O [Compound 64] | barnyardgrass (Echinochloa crus-galli) | 10

###

Test system: bermudagrass (Cynodon dactylon)
Test: Test B pre-/postemergence plant response
Assay type: in vivo
Settings: Postemergence, 250 g ai/ha; scale 0 to 100
Text: […] Treated plants and controls were maintained in a greenhouse for 13 to 15 days, after which time all treated plants were visually evaluated and compared to controls. […]

givenSmiles | systemTested | Bermudagrass plant response rating
Cc1ccc(F)cc1-n1c(-c2ccccc2)ncc(C(=O)C2=C(O)CCCC2=O)c1=O | bermudagrass (Cynodon dactylon) | 98
Cc1ccccc1-n1c(-c2cccc(Cl)c2)ncc(C(=O)C2=C(O)CCCC2=O)c1=O | bermudagrass (Cynodon dactylon) | 100
Cc1c(Cl)cccc1-n1c(-c2ccccc2)ncc(C(=O)C2=C(O)CCCC2=O)c1=O | bermudagrass (Cynodon dactylon) | 100
Cc1cc(C)cc(-n2c(-c3ccccc3)ncc(C(=O)C3=C(O)CCCC3=O)c2=O)c1 | bermudagrass (Cynodon dactylon) | 98

###

system: kochia (Kochia scoparia); test: Test B pre-/postemergence plant response; assay type: in vivo; settings: 62 g ai/ha, postemergence; 0 is no effect, 100 is complete control; 13 to 15 days
Entries and their Kochia plant response rating (0 to 100 scale)
readoutKind: Kochia plant response rating (0 to 100 scale)

givenSmiles | measuredResult
CCCCn1c(-c2ccccc2)ncc(C(=O)C2=C(O)CCCC2=O)c1=O | 85
CC(C)CC(=O)OC1=C(C(=O)c2cnc(-c3ccccc3)n(-c3ccccc3)c2=O)C(=O)CCC1 | 75
COCCn1c(-c2cccc(F)c2)ncc(C(=O)C2=C(O)CCCC2=O)c1=O | 65
Cc1ccccc1-c1ncc(C(=O)C2=C(O)CCCC2=O)c(=O)n1-c1ccccc1 | 60
O=C1CCCC(OC(=O)C2CC2)=C1C(=O)c1cnc(-c2ccccc2)n(-c2ccccc2)c1=O | 75
COCCCn1c(-c2cc(F)cc(F)c2)ncc(C(=O)C2=C(O)CCCC2=O)c1=O | 40
CCCn1c(-c2cccs2)ncc(C(=O)C2=C(O)CCCC2=O)c1=O | 80
CCCn1c(-c2cccc(Br)c2)ncc(C(=O)C2=C(O)CCCC2=O)c1=O | 65
CCCn1c(-c2cc(F)cc(F)c2)ncc(C(=O)C2=C(O)CCCC2=O)c1=O | 65
CCCCn1c(-c2cccc(Cl)c2)ncc(C(=O)C2=C(O)CCCC2=O)c1=O | 45

###

System: Surinam grass (Brachiaria decumbens)
Experiment: Test B pre-/postemergence plant response
Assay type: in vivo
Conditions: 62 g ai/ha, postemergence; 0 is no effect, 100 is complete control; 13 to 15 days
From the text: […] Treated plants and controls were maintained in a greenhouse for 13 to 15 days, after which time all treated plants were visually evaluated and compared to controls. […]
Entries and their Surinam Grass plant response rating (0 to 100 scale)
readoutKind: Surinam Grass plant response rating (0 to 100 scale)

givenSmiles | systemTested | measuredResult
CCCCn1c(-c2cccc(Cl)c2)ncc(C(=O)C2=C(O)CCCC2=O)c1=O | Surinam grass (Brachiaria decumbens) | 65
COCCn1c(-c2cc(F)cc(F)c2)ncc(C(=O)C2=C(O)CCCC2=O)c1=O | Surinam grass (Brachiaria decumbens) | 85
CCCn1c(-c2cc(F)cc(F)c2)ncc(C(=O)C2=C(O)CCCC2=O)c1=O | Surinam grass (Brachiaria decumbens) | 85
CCCn1c(-c2cccs2)ncc(C(=O)C2=C(O)CCCC2=O)c1=O | Surinam grass (Brachiaria decumbens) | 65
CCCn1c(-c2cccc(Br)c2)ncc(C(=O)C2=C(O)CCCC2=O)c1=O | Surinam grass (Brachiaria decumbens) | 65
COCCn1c(-c2cccc(Cl)c2)ncc(C(=O)C2=C(O)CCCC2=O)c1=O | Surinam grass (Brachiaria decumbens) | 65
COCCCn1c(-c2cccc(Br)c2)ncc(C(=O)C2=C(O)CCCC2=O)c1=O | Surinam grass (Brachiaria decumbens) | 50
CCCn1c(-c2ccc(F)cc2)ncc(C(=O)C2=C(O)CCCC2=O)c1=O | Surinam grass (Brachiaria decumbens) | 75
O=C1CCCC(O)=C1C(=O)c1cnc(-c2ccccc2Br)n(-c2ccccc2)c1=O | Surinam grass (Brachiaria decumbens) | 55
